Here, each record is paired with measured Ki data.
Molecular target: Rhesus PDE2A3 (Macaca mulatta)
Construct: made in house; host or cells: AD293 cells, transient transfection, pcDNA3.3-TOPO; lysate supernatant used as enzyme
Assay: PDE2 fluorescence polarization (IMAP FP) inhibition assay, rhesus enzyme
Assay type: biochemical, rhesus macaque
Settings: Lab A; read-out: Rhesus PDE2 Ki (nM) Lab A
measureName: Ki (nM)

In [3]: df
Out[3]:
                                   molecule  measurename  reportedvalue
0  COc1cc(Cc2nc(-c3cnn(C(C)c4ccc(C(F)(F)F)cc4F)c3)cc(=O)[nH]2)ccc1F (single isomer, unassigned) [Example 143]           Ki           21.3
1  CCC(c1ccc(C(F)(F)F)cc1F)n1cc(-c2cc(=O)[nH]c(C)n2)cn1 (stereo not shown) [Example 33]           Ki           36.6
2  Cc1ccc(C(C)n2cc(-c3cc(=O)[nH]c(C)n3)cn2)c(F)c1 (single isomer, unassigned) [Example 150]           Ki            695
3  CCc1nc(-c2cnn(C(C)c3ccc(C(F)(F)F)cc3F)c2)cc(=O)[nH]1 (single isomer, unassigned) [Example 86]           Ki            146
4  COc1ccc(Cc2nc(-c3cnn(C(C)c4ccc(C(F)(F)F)cc4F)c3)cc(=O)[nH]2)cc1F (single isomer, unassigned) [Example 147]           Ki            3.6
5  COc1ccc(Cc2nc(-c3cnn(C(C)c4ccc(S(F)(F)(F)(F)F)cc4)c3)cc(=O)[nH]2)cc1OC (single isomer, unassigned) [Example 64]           Ki            7.2
6  Cc1nc(-c2cnn(C(C)C3CCOCC3)c2)cc(=O)[nH]1 (stereo not shown) [Example 68]           Ki          30100

###

Biological target: human PDE2A1 (Homo sapiens)
Construct: GST; purchased BPS Bioscience (San Diego, Calif.) 60020; host or cells: insect cells
Sequence (O00408 1-920 isoform O00408-2): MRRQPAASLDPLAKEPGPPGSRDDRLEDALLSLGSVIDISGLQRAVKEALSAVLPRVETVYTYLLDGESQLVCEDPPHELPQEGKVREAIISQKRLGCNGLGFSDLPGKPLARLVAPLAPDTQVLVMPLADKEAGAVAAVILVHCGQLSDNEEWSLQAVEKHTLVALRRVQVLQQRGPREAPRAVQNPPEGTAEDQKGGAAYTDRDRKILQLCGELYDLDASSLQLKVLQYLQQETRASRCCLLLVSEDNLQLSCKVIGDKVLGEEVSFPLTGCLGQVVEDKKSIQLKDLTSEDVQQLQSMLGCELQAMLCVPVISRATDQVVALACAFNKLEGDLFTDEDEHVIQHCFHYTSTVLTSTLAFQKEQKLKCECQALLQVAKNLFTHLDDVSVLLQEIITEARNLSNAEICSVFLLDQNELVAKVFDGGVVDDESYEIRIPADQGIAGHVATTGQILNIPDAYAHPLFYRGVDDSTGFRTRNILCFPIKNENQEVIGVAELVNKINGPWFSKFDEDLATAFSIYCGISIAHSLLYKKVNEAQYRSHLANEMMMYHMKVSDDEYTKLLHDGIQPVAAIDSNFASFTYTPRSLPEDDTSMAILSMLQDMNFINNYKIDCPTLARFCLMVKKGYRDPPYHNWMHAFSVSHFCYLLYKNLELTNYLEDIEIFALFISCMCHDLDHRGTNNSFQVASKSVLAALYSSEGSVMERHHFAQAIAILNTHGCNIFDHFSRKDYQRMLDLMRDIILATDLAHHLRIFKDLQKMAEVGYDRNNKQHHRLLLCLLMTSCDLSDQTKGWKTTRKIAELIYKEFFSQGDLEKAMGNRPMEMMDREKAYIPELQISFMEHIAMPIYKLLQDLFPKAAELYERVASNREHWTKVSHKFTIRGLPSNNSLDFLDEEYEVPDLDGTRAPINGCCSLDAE
Assay: PDE2 IMAP FP inhibition assay, human enzyme (PDE selectivity panel format)
Assay type: biochemical
Details: Lab B; read-out: Human PDE2 Ki (nM) Lab B
Here, each record is paired with measured Ki data.
measureName: Ki (nM)

>>> print(df.to_string())
                                    compound  reportedvalue
 0  Cc1nc(-c2cc([C@H](C)c3ccc(C(F)(F)F)cc3)[nH]n2)cc(=O)[nH]1 (single isomer, unassigned) [Example 24]             81
 1  COc1ccc(Cc2nc(-c3cnn(C(C)c4ccc(C(F)(F)F)cc4F)c3)cc(=O)[nH]2)cc1 (single isomer, unassigned) [Example 139]           24.5
 2  Cc1nc(-c2cnn(C(C)c3ccc(C(F)(F)F)cc3C)c2)cc(=O)[nH]1 (single isomer, unassigned)            6.8
 3  COc1ccc(Cc2nc(-c3cnn(C(C)c4ccc(S(F)(F)(F)(F)F)cc4)c3)cc(=O)[nH]2)cc1OC (single isomer, unassigned) [Example 65]            8.5
 4  Cc1nc(-n2cc([C@]3(c4ccc(C(F)(F)F)cc4)CCCO3)cn2)cc(=O)[nH]1 (single isomer, unassigned) [Example 22]           31.5
 5  Cc1nc(-n2cc(Cc3ccc(C(F)(F)F)cc3)cn2)cc(=O)[nH]1            219
 6  Cc1nc(-n2cc(C(c3ccc(C(F)(F)F)cc3)C(C)C)cn2)cc(=O)[nH]1 (centres unmarked)           87.6
 7  COc1ccc(Cc2nc(-c3cnn(C(C)c4ccc(C(F)(F)F)cc4F)c3)cc(=O)[nH]2)cc1OC (single isomer, unassigned) [Example 66]            0.5
 8  Cc1nc(-c2cnn(C(C)c3ccc(S(F)(F)(F)(F)F)cc3)c2)cc(=O)[nH]1 (single isomer, unassigned) [Example 62]           86.5
 9  Cc1nc(-c2cnn(C(C)c3ccc(C(F)(F)F)cc3)c2C)cc(=O)[nH]1 (single isomer, unassigned) [Example 82]            184
10  Cc1nc(-n2cc([C@H](CO)c3ccc(C(F)(F)F)cc3F)cn2)cc(=O)[nH]1 (single isomer, unassigned) [Example 20]           16.8
11  COc1cc(C(F)(F)F)ccc1[C@@H](C)n1cc(-c2cc(=O)[nH]c(C)n2)cn1 (single isomer, unassigned)           17.1
12  Cc1nc(-n2cc(C(C)c3ccc(C(F)(F)F)cc3F)cn2)cc(=O)[nH]1 (single isomer, unassigned) [Example 52]            4.9
13  Cc1nc(-c2cnn(C(C)c3ccc(C(F)(F)F)cc3)c2C)cc(=O)[nH]1 (single isomer, unassigned) [Example 81]            194
14  Cc1nc(-c2cnn(C(C)c3ccc(C(F)(F)F)cc3)c2)cc(=O)[nH]1 (centres unmarked)            233
15  Cc1nc(-c2cn(C(C)c3ccc(C(F)(F)F)cc3)nc2C)cc(=O)[nH]1 (centres unmarked)            140
16  Cc1nc(-n2cc(C3(C)OCc4cc(C(F)(F)F)ccc43)cn2)cc(=O)[nH]1 (single isomer, unassigned) [Example 27]           66.6
17  COc1ccc(Cc2nc(-c3cnn(C(C)c4ccc(S(F)(F)(F)(F)F)cc4)c3)cc(=O)[nH]2)cc1OC (single isomer, unassigned) [Example 64]            3.3
18  COc1ccc(Cc2nc(-n3cc(C(C)c4ccc(C(F)(F)F)cc4)cn3)cc(=O)[nH]2)cc1OC (centres unmarked)            0.4
19  Cc1nc(-n2cc([C@](C)(O)c3ccc(C(F)(F)F)cc3F)cn2)cc(=O)[nH]1 (single isomer, unassigned) [Example 15]           11.7
20  COc1ccc(Cc2nc(-n3ccc(C(C)c4ccc(C(F)(F)F)cc4)n3)cc(=O)[nH]2)cc1OC (single isomer, unassigned) [Example 133]           38.5
21  Cc1nc(-n2cc(C(C)c3ccc(C4(C)CC4)cc3)cn2)cc(=O)[nH]1 (centres unmarked)            197
22  Cc1nc(-n2ccc([C@H](C)c3ccc(C(F)(F)F)cc3)n2)cc(=O)[nH]1 (single isomer, unassigned) [Example 6]            241

###

Here, each record is paired with measured log10(Ki) data.
Target: Rhesus PDE2A3 (Macaca mulatta, UniProt B3VTJ2)
Construct: made in house; host or cells: AD293 cells, transient transfection, pcDNA3.3-TOPO; lysate supernatant used as enzyme
Sequence (B3VTJ2 1-941): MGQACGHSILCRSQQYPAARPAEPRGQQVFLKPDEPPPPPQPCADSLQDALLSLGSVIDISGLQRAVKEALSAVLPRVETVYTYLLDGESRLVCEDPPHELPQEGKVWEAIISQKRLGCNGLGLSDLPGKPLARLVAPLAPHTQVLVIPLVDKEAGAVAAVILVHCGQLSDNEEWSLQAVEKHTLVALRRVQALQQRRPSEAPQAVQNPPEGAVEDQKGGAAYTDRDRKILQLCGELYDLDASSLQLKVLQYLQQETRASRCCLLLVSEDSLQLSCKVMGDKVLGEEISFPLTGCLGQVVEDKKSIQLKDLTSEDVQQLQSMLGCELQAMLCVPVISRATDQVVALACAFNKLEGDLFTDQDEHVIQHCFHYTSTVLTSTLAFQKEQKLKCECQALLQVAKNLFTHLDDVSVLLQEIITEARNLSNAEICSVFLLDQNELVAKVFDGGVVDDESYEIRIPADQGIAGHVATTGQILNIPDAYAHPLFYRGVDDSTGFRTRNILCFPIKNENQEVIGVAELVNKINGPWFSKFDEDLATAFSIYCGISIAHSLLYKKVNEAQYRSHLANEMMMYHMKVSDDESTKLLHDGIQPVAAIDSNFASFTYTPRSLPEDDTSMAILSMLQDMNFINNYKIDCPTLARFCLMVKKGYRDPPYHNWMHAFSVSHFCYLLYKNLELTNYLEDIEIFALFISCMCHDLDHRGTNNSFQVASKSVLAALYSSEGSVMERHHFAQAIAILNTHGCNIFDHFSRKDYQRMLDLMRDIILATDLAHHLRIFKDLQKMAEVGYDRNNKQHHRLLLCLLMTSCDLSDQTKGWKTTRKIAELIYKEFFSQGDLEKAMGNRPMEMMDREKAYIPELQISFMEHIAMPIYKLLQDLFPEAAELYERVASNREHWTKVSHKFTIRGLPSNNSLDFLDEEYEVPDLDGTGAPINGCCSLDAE
Test: PDE2 fluorescence polarization (IMAP FP) inhibition assay, rhesus enzyme
Format: biochemical, rhesus macaque
Conditions: Lab B; read-out: Rhesus PDE2 Ki (nM) Lab B
measureName: log10(Ki) (log10 of the value in nM)

>>> df
                                   compound  reportedvalue
0  Cc1nc(-c2cn(C(C)c3ccc(C(F)(F)F)cc3)nc2C)cc(=O)[nH]1 (stereo not drawn) [Example 80]           2.29
1  Cc1nc(-n2ccc([C@H](C)c3ccc(C(F)(F)F)cc3)n2)cc(=O)[nH]1 (single isomer, unassigned) [Example 6]           2.67
2  Cc1nc(-n2cc(Cc3ccc(C(F)(F)F)cc3)cn2)cc(=O)[nH]1 [Example 48]           2.52
3  COC(=O)c1ccc(C(C)n2ccc(-c3cc(=O)[nH]c(C)n3)n2)cc1 (stereo not drawn) [Example 162]           4.47
4  Cc1nc(-c2cnn(Cc3ccc(OC(F)(F)F)cc3)c2)cc(=O)[nH]1 [Example 29]           3.08
5  Cc1nc(-n2cc([C@H](CO)c3ccc(C(F)(F)F)cc3F)cn2)cc(=O)[nH]1 (single isomer, unassigned) [Example 20]           1.26
6  Cc1nc(-c2ccnn2C(C)c2ccc(OC(F)(F)F)cc2)cc(=O)[nH]1 (stereo not drawn) [Example 76]           4.20
7  Cc1nc(-n2cc([C@H](CO)c3ccc(C(F)(F)F)cc3F)cn2)cc(=O)[nH]1 (single isomer, unassigned) [Example 19]           2.02
8  COc1cc(C(F)(F)F)ccc1[C@@H](C)n1cc(-c2cc(=O)[nH]c(C)n2)cn1 (single isomer, unassigned) [Example 2]           1.55

// provenance: patent US10287269B2
